// reported Cmax for each item listed
protocol: Pharmacokinetic evaluation in rats after intravenous or gavage administration
Assay type: in vivo, SD rats
condition.description: SD, rat, plasma, iv, 1 mg/kg
property: Cmax (ng/mL)

N#Cc1ccc2[nH]cc(CCCN3CCN(c4ncc(-c5cccc(C(N)=O)c5)cn4)CC3)c2c1 ... 409
N#Cc1ccc2[nH]cc(CCCN3CCN(c4ncc(-c5ccc(F)cc5)cn4)CC3)c2c1 ... 195
N#Cc1ccc2[nH]cc(CCCCN3CCN(c4ncc(-c5ccc(F)cc5F)cn4)CC3)c2c1 ... 330
N#Cc1ccc2[nH]cc(CCCN3CCN(c4ncc(-c5ccc(Cl)cc5)cn4)CC3)c2c1 ... 444
N#Cc1ccc2[nH]cc(CCCN3CCN(c4ncc(-c5ccc(F)cc5F)cn4)CC3)c2c1 ... 193
N#Cc1ccc2[nH]cc(CCCCN3CCN(c4ncc(-c5ccc(F)cc5)cn4)CC3)c2c1 ... 299
